Hey, just so you know, these numbers are from patent US3985747A.

# PROCEDURE SUMMARY: Water solubility
# Assay type: physicochemical
# CONDITION PARAMETERS: 23° C., read-out: Water solubility
REPORTED ENDPOINT: solubility

# input Suppose we examine the compound N[C@@H](C(=O)NC1C(=O)N2C(C(=O)O)=C(CSc3cnn[nH]3)CSC12)c1ccc(O)cc1 (stereo partly shown) [propylene glycol solvate] ; what solubility value has been reported?
# output ~10 mg/mL

---

# PROCEDURE SUMMARY: Water solubility
# Assay type: physicochemical
# CONDITION PARAMETERS: 25° C., read-out: Solubility in water
REPORTED ENDPOINT: solubility

# input Suppose we examine the molecule N[C@@H](C(=O)N[C@@H]1C(=O)N2C(C(=O)O)=C(CSc3c[nH]nn3)CS[C@H]12)c1ccc(O)cc1 [BL-S640 Sesquihydrate] ; what solubility value has been reported?
# output ~10000 µg/mL
